System: P. aeruginosa, B. cenocepacia, A. baumannii and S. maltophilia
Test summary: MIC/MBC against all strains of Example 8
Condition notes: read-out: MBC90, against all strains
Readout label: MBC

Example entries and their recorded answers appear below.
{"columns": ["Molecule", "Result"],
 "data": [
  ["C[C@@H](O)[C@H]1C(=O)N2C(C(=O)O)=C(SCCN=CN)C[C@H]12 [Imipenem]", "> 32 µg/mL"],
  ["CO/N=C(\\C(=O)N[C@@H]1C(=O)N2C(C(=O)[O-])=C(C[N+]3(C)CCCC3)CS[C@H]12)c1csc(N)n1 [Cefepime]", "≥ 32 µg/mL"],
  ["C[C@H]1COc2c(N3CCN(C)CC3)c(F)cc3c(=O)c(C(=O)O)cn1c23 [Levofloxacin]", "16 µg/mL"]
]}

Please look at the following molecule next.
# input Quick check: MBC on P. aeruginosa, B. cenocepacia, A. baumannii and S. maltophilia, item NC[C@H]1O[C@H](O[C@H]2[C@H](O)[C@@H](O[C@H]3O[C@H](CO)[C@@H](O)[C@H](N)[C@H]3O)[C@H](N)C[C@@H]2N)[C@H](N)C[C@@H]1O [Tobramycin] ?
# output > 32 µg/mL
